// reported MIC per item
Tested on: methicillin-resistant Staphylococcus aureus (MRSA)
assay.notes: Determination of MIC values (BHI broth, 96 well microtiter plate)
Type: cell-based
assay.setup: Staphylococcus aureus, MRSA; BHI broth, overnight 37° C.; read-out: MIC MRSA

Solved cases (3 shown):
Cn1cc(-c2cc(C(=O)NCc3cccc(CN)c3)c3cc(I)ccc3n2)c2cc(Br)ccc21 : < 7 µg/mL
Cn1cc(-c2cc(C(=O)NCc3ccc(CN)cc3)c3cc(C#CCN4CCc5ccccc5C4)ccc3n2)c2cc(Br)ccc21 : > 25 µg/mL
NCc1ccc(CNC(=O)c2cc(-c3c[nH]c4ccc(Br)cc34)nc3cc(Cl)c(C#CCN4CCc5ccccc5C4)cc23)cc1 : < 25 µg/mL

Turning to the following compound.
Return reported MIC; argument: NCc1ccc(CNC(=O)c2cc(-c3c[nH]c4ccc(Cl)cc34)nc3c(Br)cccc23)cc1
< 7 µg/mL
